system: HCC-2998 colon; test: NCI-60 one-dose screen, 48 h; conditions: 10 µM unless noted
About 83,000 compounds went through this panel and 20% of them were active in at least one assay; those are over-represented in the sample as a whole. Activity calls are given as the source filed them. The calls were made as follows: active = growth percent below 10; inactive = the rest.
Outcomes: T (active), F (inactive)

>>> class_label("C#CC(F)(F)[C@]1(O)CC[C@H]2[C@@H]3CCC4=CC(=O)CCC4=C3[C@@H](c3ccc(C4CC4)cc3)C[C@@]21C")
"F"
>>> class_label("COc1cccc(-c2nn(C(C)(C)C)cc2-c2ccnc(NCCCNS(=O)(=O)c3ccc(C)cc3)c2)c1")
"F"
>>> class_label("CCCCC(=O)OCC1OC(n2cnc3c(=S)nc[nH]c32)C(OC(=O)CCCC)C1OC(=O)CCCC (stereo not drawn)")
"T"
>>> class_label("C#CCOc1ccc2ncnc(N3CCC(NC(=O)CCl)CC3)c2c1")
"F"
>>> class_label("CN1CCN=C1c1ccc(NC(=O)c2ccc(C(=O)Nc3ccc(C4=NCCN4C)cc3)cc2)cc1")
"F"
>>> class_label("Cc1ccc(C2Oc3ccccc3C3CC(c4cccs4)=NN32)cc1 (stereo not drawn)")
"F"
>>> class_label("COc1cc2c(cc1OC)C(Sc1ccc(SC)cc1)c1c(nc(N)c(C#N)c1N)O2 (stereo not drawn)")
"T"
>>> class_label("Oc1ccc(N=Cc2ccccc2O)cc1")
"F"
>>> class_label("NC(=O)c1cc(Cl)ccc1NC(=O)/C=C/c1ccccc1")
"F"
>>> class_label("Nc1ccc(S(=O)(=O)O)c2ccc(N=Nc3ccc(N=Nc4ccc(S(=O)(=O)O)cc4)c4ccccc34)c(O)c12")
"F"
>>> class_label("CCCCCCCCCCCCC[N+](C)(C)Cc1ccccc1")
"T"
>>> class_label("CSc1nc(-c2cccc(NC(=O)CCl)c2)c(C#N)c(=O)n1C")
"F"
>>> class_label("O=c1nc2oc3ccc4ccccc4c3cc-2s1")
"F"
>>> class_label("COc1ccc(-n2nc(C)c3c(Nc4ccc(NC(=O)Nc5cc(C(F)(F)F)ccc5F)cc4)ncnc32)cc1")
"F"
>>> class_label("Cn1ncc2c(=O)nc3c(-c4ccccc4)n[nH]n3c21")
"F"
>>> class_label("COc1cc2c(cc1-c1c(C)noc1C)ncc1nc(C3CCCC3)n([C@H](C)COC(F)F)c12")
"F"
>>> class_label("Clc1ccc2c(NCCCCNc3nc(N4CCOCC4)nc4ccccc34)ccnc2c1")
"F"
>>> class_label("Cc1cc2nc3[nH]c4ccccc4c3nc2cc1C")
"F"

====

tested on: T-47D breast; test: NCI-60 one-dose screen, 48 h (100 = growth as untreated, 0 = no growth, -100 = all killed); conditions: 10 µM unless noted
The panel holds about 83,000 compounds, 20% with a hit somewhere; the sample as a whole holds those more often.
property measured: growth (%)

>>> experimental_value("CNc1ccc(-c2cc(=O)oc3ccc(Cl)cc23)cc1")
66.8
>>> experimental_value("Cc1nc2ccccc2n1C(=O)C[C@@H]1NC(=S)NC1=O")
96.7
>>> experimental_value("CCOC(=O)c1cc(C(=O)c2ccc(O)c(O)c2)n2ccc(-c3ccn4c(C(=O)c5ccc(O)c(O)c5)cc(C(=O)OCC)c4c3)cc12")
77.4
>>> experimental_value("COc1ccc(-c2cc(=O)c3c(OC)c4ccoc4cc3o2)cc1")
87.2

====

tested on: HT29 colon; test: NCI-60 one-dose screen, 48 h; conditions: 10 µM unless noted
This is part of a sample that, as a whole, favours compounds with a hit. Of some 83,000 tested, about 20% had one in any assay. Activity calls are given as the source filed them. Rule for the calls: active = growth percent below 10; inactive = the rest.
Outcomes: 1 (yes) (active), 0 (no) (inactive)

>>> class_label("CN1CCN=C1c1ccc(NC(=O)c2ccc(C(=O)Nc3ccc(C4=NCCN4C)cc3)cc2)cc1")
"0 (no)"
>>> class_label("COc1ccc(/C=C(\\C#N)C(=O)Nc2cccc(Nc3nc(SC)nc(-c4cccc([N+](=O)[O-])c4)c3C#N)c2)cc1OC")
"0 (no)"
>>> class_label("Nc1nc2ccc3[nH]ncc3c2c2c1CCCC2")
"1 (yes)"
>>> class_label("CCCCCCN(CCCCCC)CCC(O)c1ccc2ccccc2c1 (stereo unspecified)")
"0 (no)"
>>> class_label("CC[C@@H](C(=O)[C@@H](C)[C@@H](O)[C@H](C)[C@@H]1O[C@@H]([C@@H](CC)C(=O)O)CC[C@@H]1C)[C@H]1OC2(C=C[C@@H](O)[C@]3(CC[C@@](C)([C@H]4CC[C@](O)(CC)[C@H](C)O4)O3)O2)[C@H](C)C[C@@H]1C (stereo partly specified)")
"0 (no)"
>>> class_label("COc1ccc(SC2c3cc(OC)c(OC)cc3Oc3nc(N)c(C#N)c(N)c32)cc1 (stereo unspecified)")
"1 (yes)"
>>> class_label("COc1ccc(-c2cc(NC(=O)Nc3ccc4ncsc4c3)no2)cc1")
"0 (no)"
>>> class_label("COc1cccc(Nc2nc(SC)nc(-c3cccc([N+](=O)[O-])c3)c2C#N)c1")
"0 (no)"
>>> class_label("O=c1c2c3c(sc2nc(N/N=C/c2cn(-c4ccccc4)nc2-c2ccc(Cl)cc2)n1Cc1ccccc1)CCCC3")
"0 (no)"
>>> class_label("Cc1cc(N2CCCCC2)nc(NC2CCCC(Nc3ccnc4cc(Cl)ccc34)C2)n1 (stereo unspecified)")
"1 (yes)"
>>> class_label("Nc1nc2ncc(CCNc3ccc(C(=O)O)cc3)nc2c(=O)[nH]1")
"0 (no)"
>>> class_label("C#Cc1cccc(NC(=O)c2ccccc2NC(=O)C=C)c1")
"0 (no)"
>>> class_label("O=C(COc1ccc(/C=C2\\CSc3ccccc3C2=O)cc1)Nc1nccs1")
"0 (no)"
>>> class_label("Clc1ccc2nc3nc4ccc[nH]c4cc3c2c1")
"0 (no)"
>>> class_label("O=C1C=C(OCC=C(Cl)Cl)C(=O)c2ccccc21")
"0 (no)"
>>> class_label("CC1C(/C=N/Nc2ccccc2)C(C#N)(C#N)C1(C#N)C#N (stereo unspecified)")
"0 (no)"

====

test system: DU-145 prostate; assay: NCI-60 one-dose screen, 48 h (100 = growth as untreated, 0 = no growth, -100 = all killed); details: 10 µM unless noted
About 83,000 compounds went through this panel and 20% of them were active in at least one assay; those are over-represented in the sample as a whole.
property measured: growth (%)

>>> experimental_value("NS(=O)(=O)c1ccc(CN=C2NC(=O)S/C2=C\\c2ccc(Br)cc2)cc1")
111
>>> experimental_value("CC/C=C\\C[C@H](O)C/C=C1/C(=O)C=C[C@@]1(C)C/C=C\\CCCC(=O)OC")
112
>>> experimental_value("O=C(O)c1ccc(N=CC(=O)c2ccc(-c3ccccc3)cc2)cc1")
112

====

tested on: UACC-257 melanoma; experiment: NCI-60 one-dose screen, 48 h; details: 10 µM unless noted
About 83,000 compounds went through this panel and 20% of them were active in at least one assay; those are over-represented in the sample as a whole. The source made the active and inactive calls. How the source made its calls: active means growth percent below 10; inactive means the rest.
Outcomes: active, inactive

>>> class_label("NC(=O)c1cc(I)ccc1NC(=O)/C=C/c1ccccc1Cl")
"inactive"
>>> class_label("CCOC(=O)c1c(C)oc2ncnc(N3CCN(C(=S)Nc4ccccc4)CC3)c12")
"inactive"
>>> class_label("Cn1c(NCCc2ccc(O)c(O)c2)nc2c1c(=O)n(Cc1ccc(Cl)c(Cl)c1)c(=O)n2C")
"inactive"
>>> class_label("COc1ccc(NC(=O)c2ccc(/C=C/C(=O)c3ncc[nH]3)cc2)cc1")
"inactive"
>>> class_label("Cc1ccc2oc(=O)cc(C3c4ccc([nH]4)C(c4cc(=O)oc5ccc(C)cc45)c4ccc([nH]4)C(c4cc(=O)oc5ccc(C)cc45)c4ccc([nH]4)C(c4cc(=O)oc5ccc(C)cc45)c4ccc3[nH]4)c2c1 (stereo unspecified)")
"active"
>>> class_label("COc1cc2nc(N3CCCC3)nc(NCc3ccccc3)c2cc1OC")
"active"
>>> class_label("Clc1ccc2c(NCCCNc3nc(-n4ccnc4)nc4ccccc34)ccnc2c1")
"inactive"
>>> class_label("Oc1cccc(-c2nc(N3CCOCC3)c3c4c(sc3n2)CCCC4)c1")
"inactive"
>>> class_label("Cc1ccc(O)c(N2C(=NCc3ccco3)NS(=O)(=O)c3cnccc32)c1")
"inactive"
>>> class_label("COCCNc1ccc2c3c(cccc13)C(=O)N(CCN(C)C)C2=O")
"inactive"
>>> class_label("COc1ccc(C(=O)/C=C/c2cccnc2Nc2cc(OC)c(OC)c(OC)c2)cc1")
"inactive"
>>> class_label("O=C(N/N=C/c1ccccc1O)c1ccccc1Nc1ccnc(C(F)(F)F)c1")
"active"
>>> class_label("COc1ccc(-c2n[nH]nc2-c2csc3ccccc23)cc1OC")
"inactive"
>>> class_label("CCOC(=O)c1c(C(=O)OCC)c2cc(-c3ccn4c(C(=O)c5ccccc5)c(C(=O)OCC)c(C(=O)OCC)c4c3)ccn2c1C(=O)c1ccccc1")
"inactive"
>>> class_label("Cc1ccc(-c2onc3c(=O)[nH]nc(-c4ccccc4)c23)cc1")
"inactive"
>>> class_label("O=c1ccccc(-c2ccc(Br)cc2)c1O")
"active"
>>> class_label("CCCCCCN(CCCCCC)C(=N)c1ccnc2ccccc12")
"inactive"
>>> class_label("O=C(/C=C/c1ccc(C(F)(F)F)cc1)Nc1ccc(C=C2c3ccccc3C(=O)c3ccccc32)cc1")
"inactive"
>>> class_label("O=S(=O)(Nc1ccc(Br)c(Cl)c1)c1ccc(-c2cnc(C3CC3)o2)cc1")
"inactive"
>>> class_label("Cn1cc(C(=O)c2nc(-c3c[nH]c4ccccc34)no2)c2ccccc21")
"inactive"
>>> class_label("CC(C)n1c(/C=C/[C@@H](O)C[C@@H](O)CC(=O)O)c(-c2ccc(F)cc2)c2ccccc21")
"inactive"
>>> class_label("CSc1nc2c(c(=O)[nH]1)C1(C(=O)Nc3ccccc31)c1c(nc(SC)[nH]c1=O)N2")
"inactive"
>>> class_label("Cn1cc(-c2nonc2-c2c[nH]c3ccccc23)c2cccnc21")
"inactive"
>>> class_label("CC(C)C1=C[C@@]23CC[C@@H]4[C@](C)(CCC[C@@]4(C)C(=O)N4CCCNCC4)[C@H]2C[C@@H]1[C@H]1C(=O)CCC(=O)[C@H]13")
"inactive"
>>> class_label("CC(C)C[C@@H](NC(=O)[C@@H](Cc1ccccc1)NC(=O)c1cnccn1)B1Oc2ccc(C[C@H](NC(=O)[C@H](Cc3ccc4c(c3)OB([C@@H](CC(C)C)NC(=O)[C@@H](Cc3ccccc3)NC(=O)c3cnccn3)O4)NC(=O)[C@@H](N)CC3CCC4OB([C@@H](CC(C)C)NC(=O)[C@@H](CC5CCCCC5)NC(=O)C5CNCCN5)OC4C3)C(=O)NCCCC[C@@H]3NC(=O)[C@@H](Cc4ccccc4)NC(=O)[C@H](CC(=O)O)NC(=O)CNC(=O)[C@H](CCCNC(=N)N)NC3=O)cc2O1 (stereo partly specified)")
"active"
>>> class_label("COc1cccc(-c2nn(C(C)(C)C)cc2-c2ccnc(NCCCNS(=O)(=O)c3cccc4ccccc34)c2)c1")
"inactive"
>>> class_label("O=C(N=Nc1c(O)[nH]c2ccc(Br)cc12)c1cc(-c2ccccc2)on1")
"inactive"
>>> class_label("COc1cc2c(cc1O)CC[C@@H]1[C@@H]2CC[C@]2(C)[C@@H](NCCN(C)C)CC[C@@H]12")
"active"
>>> class_label("N#Cc1c(-c2ccc(Cl)cc2)nc(NN=Cc2ccco2)nc1N1CCOCC1")
"inactive"
>>> class_label("O=C1c2cc3c(cc2-c2c1c1ccc(F)cc1c(=O)n2C[C@H](O)[C@H](O)[C@H](O)CO)OCO3")
"active"
>>> class_label("CN(C)c1ccc(N=Nc2ccc(Br)cn2)c(O)c1")
"active"
